Numbers sourced from patent EP4763847A1.

test system: HCT116-WT; assay: Cell proliferation inhibition (CellTiter Glo), HCT116-WT cells; assay type: cell-based; details: 144 h, cultured 6 days with compound
experimental-readout: IC50 (µM)
Entry rule: numbers only, all in µM.

Some entries whose results are on file:
CN/C(N)=N\c1ccc(C(=O)N(Cc2ccc(C(F)(F)F)cn2)[C@H]2CCCc3ccccc32)cn1	2.97
CNC(N)=Nc1ccc(C(=O)N(Cc2ccc(C(F)(F)F)cn2)C(C)c2ccccn2)cn1 (stereo not drawn)	3.48

Now consider the entry below.
IC50 measured on CNC(N)=Nc1ccc(C(=O)N(Cc2ccc(C(F)(F)F)cn2)C(C)c2ccccc2C)cn1 (stereo not drawn) = 3.71
